# System: HOP-62
# test: Growth inhibition of human HOP-62 cells assessed as cell growth at 100 uM incubated for 48 hrs by sulforhodamine B assay relative to control
# Format: functional
# conditionsUsed: read-out: Activity
parameterMeasured: growth at 100 µM (%)

>>> df
                                inputsmiles  parametermeasured  unitlabel  recordednumber
0  CCc1ccccc1NC(=O)c1sc2nc3c(cc2c1N)C(=O)CCC3   growth at 100 µM          %             -22
1  Cc1cccc(NC(=O)c2sc3nc4c(cc3c2N)C(=O)CCC4)c1   growth at 100 µM          %               1
2  Cc1ccc(NC(=O)c2sc3nc4c(cc3c2N)C(=O)CCC4)cc1C   growth at 100 µM          %              28

###

The following compounds are listed with their measured growth at 1 µM values.
# System: OVCAR-5
# test: Growth inhibition of human OVCAR-5 cells assessed as cell growth at 1 uM incubated for 48 hrs by sulforhodamine B assay relative to control
# Assay type: functional
# conditionsUsed: read-out: Activity
parameterMeasured: growth at 1 µM (%)

In [3]: df
Out[3]:
                                inputsmiles  recordednumber
0  Cc1cccc(NC(=O)c2sc3nc4c(cc3c2N)C(=O)CCC4)c1              44
1  CCc1cccc(C)c1NC(=O)c1sc2nc3c(cc2c1N)C(=O)CCC3              59
2  Cc1cc(C)c(NC(=O)c2sc3nc4c(cc3c2N)CN(Cc2ccccc2)CC4)c(C)c1              97
3  COc1cccc(NC(=O)c2sc3nc4c(cc3c2N)CN(Cc2ccccc2)CC4)c1              95
4  Cc1ccc(NC(=O)c2sc3nc4c(cc3c2N)C(=O)CCC4)cc1C              66
5  CCc1ccccc1NC(=O)c1sc2nc3c(cc2c1N)C(=O)CCC3              50
6  Nc1c(C(=O)Nc2ccccc2)sc2nc3c(cc12)CN(Cc1ccccc1)CC3              93

###

# Tested on: NCI-H522
# test: Growth inhibition of human NCI-H522 cells assessed as cell growth at 100 uM incubated for 48 hrs by sulforhodamine B assay relative to control
# Type: functional
# conditionsUsed: read-out: Activity
The following compounds are listed with their measured growth at 100 µM values.
parameterMeasured: growth at 100 µM (%)

In [3]: df
Out[3]:
                                inputsmiles  recordednumber
0  Cc1cc(C)c(NC(=O)c2sc3nc4c(cc3c2N)CN(Cc2ccccc2)CC4)c(C)c1             -29
1  Nc1c(C(=O)Nc2ccccc2)sc2nc3c(cc12)CN(Cc1ccccc1)CC3              31
2  CCc1ccccc1NC(=O)c1sc2nc3c(cc2c1N)C(=O)CCC3              19
3  COc1cccc(NC(=O)c2sc3nc4c(cc3c2N)CN(Cc2ccccc2)CC4)c1               1
4  Cc1cccc(NC(=O)c2sc3nc4c(cc3c2N)C(=O)CCC4)c1             -27
5  CN1CCc2nc3sc(C(N)=O)c(N)c3c(-c3cccs3)c2C1             -26
6  Cc1ccc(NC(=O)c2sc3nc4c(cc3c2N)C(=O)CCC4)cc1C             -13

Hey, just so you know, these numbers are from ChEMBL document CHEMBL4715736.
